NCI-H460 lung measurements of GI50, listed per entry.

Below is a list of molecules. For each, state its recorded GI50.
1. O=C1/C(=C/c2ccc(O)c(O)c2)COc2ccc(-c3ccccc3)cc21
2. Cc1ccc(-c2cc3c(NC(=O)C4CC4)ncnc3o2)cc1

Out:
["1.99 µM", "> 25 µM"]

----------
Hi there, I'd appreciate the recorded TGI for every entry that follows.
# System: SK-MEL-28 melanoma
# Experiment Notes: NCI tumour cell line growth inhibition, 48 h

# example entries with known answers
CCOc1cc(C(c2c(O)c3ccccc3oc2=O)c2c(O)c3ccccc3oc2=O)ccc1OC	72.2 µM
O=C(O[C@H]1CN[C@H](C#Cc2cc3ncnc(Nc4ccc5c(cnn5Cc5ccccc5)c4)c3s2)C1)N1CCOCC1	> 25 µM

Below is a list of molecules. For each, state its recorded TGI.
1. CCCCCCCc1c(Cl)nc(Cl)nc1Cl
2. CC1=NN(c2cccc(Cl)c2)C2(SCC(=O)N2c2nc3ccccc3s2)/C1=C\c1ccccc1 (stereo not given)

Out:
1. 18.6 µM
2. > 100 µM
